Values were extracted from patent US20250326744A1.

- Test system: mexB (EC) strain
- EXPERIMENTAL DETAILS: Efflux ability inhibition effect on drug efflux pump MexB (Test Examples 1 and 3): proliferation (OD595) of mexB (EC) strain with EM or LVFX at 1/4 MIC, EC75
- Assay type: cell-based, Escherichia coli
- RUN CONDITIONS: Table 51, Test Example 1; combined with EM at 1/4 MIC; 16 to 20 hours culture, OD595
- Protocol: The efflux ability inhibition effect of the test compound on the drug efflux pump was evaluated using the bacterial proliferative ability in the presence of EM or LVFX as an index. […] The mexB (EC) strain and the mexY (EC) strain were cultured for 16 to 20 hours in a culture medium to which EM or LVFX and test compounds at various concentrations (0 to 800 μM) were added, and the proliferation of the bacterial strains was evaluated by optical turbidity at 595 nm (OD595). […]
ASSAY METRIC: EC75, mexB (EC) strain, EM

Reference set (6 entries):
>  <MOLECULE>
COc1cccc(F)c1C(C)N1CCN(C(=O)CN2CCN(CCc3ccccc3)CC2)CC1.Cl (stereo not shown)

>  <RESULT>
A (12.5 μM<EC75≤25 μM)

$$$$
>  <MOLECULE>
COc1ccccc1CN1CCN(C(=O)C(=NO)C2CCN(CCc3ccccc3)CC2)CC1

>  <RESULT>
B (25 μM<EC75≤100 μM)

$$$$
>  <MOLECULE>
N[C@@H](C(=O)N1CCN(Cc2cscn2)CC1)C1CCN(CCc2cc(Cl)ccc2-c2ccccc2)CC1

>  <RESULT>
B (25 μM<EC75≤100 μM)

$$$$
>  <MOLECULE>
CCOc1cccc(F)c1CN1CCN(C(=O)[C@H](N)C2CCN(CCc3nsc4ccccc34)CC2)CC1

>  <RESULT>
A (12.5 μM<EC75≤25 μM)

$$$$
>  <MOLECULE>
CCOc1cccc(F)c1CN1CCN(C(=O)[C@H](N)C2CCN(CCc3ccccc3C(=O)OC)CC2)CC1

>  <RESULT>
A (12.5 μM<EC75≤25 μM)

$$$$
>  <MOLECULE>
CCOc1cccc(F)c1CN1CCN(C(=O)[C@H](N)C2CCN(CCc3cn(-c4ccccc4F)c4ccccc34)CC2)CC1

>  <RESULT>
A (12.5 μM<EC75≤25 μM)

$$$$

What EC75, mexB (EC) strain, EM value was documented for this molecule, `COc1ccccc1CN1CCN(C(=O)CN2CCC(NC(=O)c3ccc(O)c(O)c3Cl)CC2)CC1` ?
B (25 μM<EC75≤100 μM)

What EC75, mexB (EC) strain, EM value was documented for this molecule, `COc1ccccc1CN1CCN(C(=O)CN2CCN(CCc3ccccn3)CC2)CC1` ?
B (25 μM<EC75≤100 μM)

What EC75, mexB (EC) strain, EM value was documented for this molecule, `CN[C@@H](C(=O)N1CCN(Cc2ccccc2OC)CC1)C1CCN(CCc2ccccc2)CC1` ?
B (25 μM<EC75≤100 μM)

What EC75, mexB (EC) strain, EM value was documented for this molecule, `O=C(CN1CCN(CCc2ccccc2)CC1)N1CCN(Cc2ccccc2[N+](=O)[O-])CC1` ?
B (25 μM<EC75≤100 μM)

What EC75, mexB (EC) strain, EM value was documented for this molecule, `O=C(O)c1ccccc1CN1CCN(C(=O)CN2CCN(CCc3ccccc3)CC2)CC1` ?
B (25 μM<EC75≤100 μM)

What EC75, mexB (EC) strain, EM value was documented for this molecule, `COCc1ccccc1CN1CCN(C(=O)CN2CCN(CCc3ccccc3)CC2)CC1` ?
A (12.5 μM<EC75≤25 μM)

What EC75, mexB (EC) strain, EM value was documented for this molecule, `CCOc1cccc(F)c1CN1CCN(C(=O)[C@H](N)C2CCN(CCc3ccccc3N)CC2)CC1` ?
A (12.5 μM<EC75≤25 μM)

What EC75, mexB (EC) strain, EM value was documented for this molecule, COc1ccccc1CN1CCN(C(=O)[C@H](N)C2CCN(CC(CN)c3ccccc3)CC2)CC1 (stereo partly shown) ?
B (25 μM<EC75≤100 μM)

What EC75, mexB (EC) strain, EM value was documented for this molecule, `CCOc1cccc(F)c1CN1CCN(C(=O)[C@H](N)C2CCN(CCc3cc(Cl)ccc3-c3cccc(F)c3)CC2)CC1` ?
A (12.5 μM<EC75≤25 μM)

What EC75, mexB (EC) strain, EM value was documented for this molecule, `O=C(CN1CCN(CCc2ccccc2)CC1)N1CCN(Cc2ccccc2CO)CC1` ?
A (12.5 μM<EC75≤25 μM)
